- Target: Ephrin type-B receptor 4 (Homo sapiens, UniProt P54760); also: in the data inactive means no Kd found up to 30 µM
- Sequence (P54760 whole entry): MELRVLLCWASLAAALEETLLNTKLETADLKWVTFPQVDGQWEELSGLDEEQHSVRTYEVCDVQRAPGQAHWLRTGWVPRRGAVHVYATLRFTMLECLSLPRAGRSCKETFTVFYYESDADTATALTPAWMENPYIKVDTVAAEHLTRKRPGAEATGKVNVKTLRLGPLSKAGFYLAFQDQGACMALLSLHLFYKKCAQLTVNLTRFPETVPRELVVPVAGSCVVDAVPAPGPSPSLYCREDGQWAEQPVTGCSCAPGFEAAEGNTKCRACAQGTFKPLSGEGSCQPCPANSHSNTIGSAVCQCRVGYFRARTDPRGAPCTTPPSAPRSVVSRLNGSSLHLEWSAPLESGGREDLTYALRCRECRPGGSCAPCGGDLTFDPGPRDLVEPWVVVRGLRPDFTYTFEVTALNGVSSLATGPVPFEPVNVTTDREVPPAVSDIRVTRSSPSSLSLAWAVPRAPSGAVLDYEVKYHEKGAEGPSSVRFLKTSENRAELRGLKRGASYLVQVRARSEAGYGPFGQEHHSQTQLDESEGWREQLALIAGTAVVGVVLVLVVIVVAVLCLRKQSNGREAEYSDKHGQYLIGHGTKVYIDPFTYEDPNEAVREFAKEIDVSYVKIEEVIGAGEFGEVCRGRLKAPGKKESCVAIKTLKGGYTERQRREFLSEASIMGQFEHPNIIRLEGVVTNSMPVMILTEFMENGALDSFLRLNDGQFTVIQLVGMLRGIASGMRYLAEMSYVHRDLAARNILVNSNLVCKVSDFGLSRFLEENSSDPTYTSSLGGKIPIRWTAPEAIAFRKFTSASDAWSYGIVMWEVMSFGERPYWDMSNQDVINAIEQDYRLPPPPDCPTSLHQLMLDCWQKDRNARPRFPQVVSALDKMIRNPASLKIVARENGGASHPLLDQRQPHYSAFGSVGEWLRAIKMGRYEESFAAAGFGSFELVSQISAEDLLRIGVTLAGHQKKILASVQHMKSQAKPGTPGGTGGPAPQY
Calls of active or inactive are those of the source.
A correct response names exactly one class from T = active, F = inactive

Examples with answers:
{"Compound": "COc1cc2ncnc(Oc3cccc(NC(=O)Nc4cc(C(C)(C)C(F)(F)F)on4)c3)c2cc1OC", "Answer label": "T"}
{"Compound": "COCc1c(-c2ccc(NC(=O)Nc3cc(C(F)(F)F)ccc3F)c(F)c2)c2c(N)ncnn2c1CN1CCOCC1", "Answer label": "F"}
{"Compound": "Cc1cc(Nc2ncc(Cl)c(Nc3ccccc3S(=O)(=O)C(C)C)n2)c(OC(C)C)cc1C1CCNCC1", "Answer label": "F"}
{"Compound": "CC(C)c1cc(CNc2nc(Nc3cc(C4CC4)[nH]n3)cc(N3CCN(C)CC3)n2)on1", "Answer label": "T"}
{"Compound": "Cc1[nH]c(/C=C2\\C(=O)Nc3ccccc32)c(C)c1CCC(=O)O [ORANTINIB]", "Answer label": "F"}

Attention now shifts to the item below.
Please indicate how the test categorized CCCCCCCCCCCCCCCCCCOP(=O)([O-])OC1CC[N+](C)(C)CC1 .
F

* * *

- Target: UniProt Q9UK32
Activity calls are given as the source filed them.
A correct response names exactly one class from active, inactive

Examples with answers:
{"Molecule": "C=CC(=O)N1CCC[C@H](n2c(=O)n(-c3ccc(Oc4ccccc4)cc3)c3c(N)ncnc32)C1", "Answer label": "inactive"}
{"Molecule": "C[C@@H](NC(=O)c1ncnc(N)c1Cl)c1ncc(C(=O)Nc2cc(C(F)(F)F)c(Cl)cn2)s1", "Answer label": "inactive"}
{"Molecule": "Cc1[nH]c(/C=C2\\C(=O)Nc3ccccc32)c(C)c1CCC(=O)O [ORANTINIB]", "Answer label": "inactive"}
{"Molecule": "Cc1cc(Nc2ncc(Cl)c(Nc3ccccc3S(=O)(=O)C(C)C)n2)c(OC(C)C)cc1C1CCNCC1", "Answer label": "inactive"}

Please indicate how the test categorized Cn1cnc2c(F)c(Nc3ccc(Br)cc3F)c(C(=O)NOCCO)cc21 .
inactive

Another molecule: Cc1cnc(NC(=O)Nc2cc(Br)c(C)cc2OC[C@@H]2CNCCO2)cn1
inactive

Another molecule: CNC(=O)c1nn(C)c2c1C(C)(C)Cc1cnc(Nc3ccc(N4CCN(C)CC4)cc3)nc1-2
inactive

Another molecule: COCc1c(-c2ccc(NC(=O)Nc3cc(C(F)(F)F)ccc3F)c(F)c2)c2c(N)ncnn2c1CN1CCOCC1
active

* * *

- Target: Citron Rho-interacting kinase (Homo sapiens); also: in the data inactive means no Kd found up to 30 µM
Activity calls are given as the source filed them.
A correct response names exactly one class from active, inactive

Examples with answers:
{"Molecule": "O=C(Nc1cc(C(F)(F)F)cc(C(F)(F)F)c1)c1cc(Cl)ccc1O", "Answer label": "inactive"}
{"Molecule": "Cn1cnc2c(F)c(Nc3ccc(Br)cc3F)c(C(=O)NOCCO)cc21", "Answer label": "inactive"}
{"Molecule": "NC1(c2ccc(-c3nc4ccn5c(=O)[nH]nc5c4cc3-c3ccccc3)cc2)CCC1", "Answer label": "inactive"}
{"Molecule": "CN(C[C@@H]1COCCO1)S(=O)(=O)Nc1ccc2ccc3ncc(-c4cnn(C)c4)cc3c(=O)c2c1", "Answer label": "inactive"}
{"Molecule": "C=CC(=O)Nc1cc2c(Nc3ccc(F)c(Cl)c3)ncnc2cc1C#CC(C)(C)N1CCN(C)CC1 [AV-412 FREE BASE]", "Answer label": "inactive"}
{"Molecule": "Cc1cccc(-c2nn3c(c2-c2ccnc4ccc(C(N)=O)cc24)CCC3)n1", "Answer label": "inactive"}
{"Molecule": "Cc1cc(Nc2ncc(Cl)c(Nc3ccccc3S(=O)(=O)C(C)C)n2)c(OC(C)C)cc1C1CCNCC1", "Answer label": "inactive"}
{"Molecule": "C[C@@H](N)c1ccc(C(=O)Nc2ccnc3[nH]ccc23)cc1", "Answer label": "active"}

Please indicate how the test categorized CNC(=O)c1nn(C)c2c1C(C)(C)Cc1cnc(Nc3ccc(N4CCN(C)CC4)cc3)nc1-2 .
inactive

Another molecule: N#CC1(c2ccc(NC(=O)c3cccnc3NCc3ccncc3)cc2)CCCC1
inactive

Another molecule: O=C(Nc1nc2cccc(-c3ccc(CN4CCS(=O)(=O)CC4)cc3)n2n1)C1CC1
inactive

* * *

- Target: Receptor-type tyrosine-protein kinase FLT3 (Homo sapiens, UniProt P36888); also: in the data inactive means no Kd found up to 30 µM
- Sequence (P36888 whole entry): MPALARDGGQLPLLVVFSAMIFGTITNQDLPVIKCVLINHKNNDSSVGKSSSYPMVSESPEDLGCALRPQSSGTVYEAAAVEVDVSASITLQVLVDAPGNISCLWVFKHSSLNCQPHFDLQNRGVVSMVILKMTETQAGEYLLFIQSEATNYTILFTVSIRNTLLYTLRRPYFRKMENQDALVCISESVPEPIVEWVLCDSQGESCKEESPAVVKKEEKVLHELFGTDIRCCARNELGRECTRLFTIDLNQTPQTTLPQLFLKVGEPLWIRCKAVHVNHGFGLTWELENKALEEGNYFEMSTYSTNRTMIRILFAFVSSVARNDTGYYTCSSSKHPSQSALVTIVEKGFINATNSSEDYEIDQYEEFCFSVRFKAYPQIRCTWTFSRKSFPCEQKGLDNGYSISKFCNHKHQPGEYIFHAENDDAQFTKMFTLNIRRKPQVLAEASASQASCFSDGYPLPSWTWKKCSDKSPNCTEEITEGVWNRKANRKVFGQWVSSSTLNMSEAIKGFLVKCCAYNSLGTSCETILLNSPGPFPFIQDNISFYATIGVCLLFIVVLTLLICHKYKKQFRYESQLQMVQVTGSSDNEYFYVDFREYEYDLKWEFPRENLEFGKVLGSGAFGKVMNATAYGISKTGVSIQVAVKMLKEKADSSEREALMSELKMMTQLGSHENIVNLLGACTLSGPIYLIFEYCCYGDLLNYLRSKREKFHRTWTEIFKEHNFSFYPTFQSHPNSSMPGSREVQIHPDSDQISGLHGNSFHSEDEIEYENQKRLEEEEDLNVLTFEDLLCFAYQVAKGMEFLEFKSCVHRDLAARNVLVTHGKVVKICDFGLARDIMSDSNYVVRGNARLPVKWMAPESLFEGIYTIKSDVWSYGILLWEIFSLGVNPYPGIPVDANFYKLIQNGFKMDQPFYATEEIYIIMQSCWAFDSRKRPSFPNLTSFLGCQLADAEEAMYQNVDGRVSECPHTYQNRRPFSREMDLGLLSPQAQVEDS
Activity calls are given as the source filed them.
A correct response names exactly one class from TRUE for active, FALSE for inactive

{"Smi": "Cc1nc2cc(-c3nn(C(C)C)c4ncnc(N)c34)ccc2o1", "Answer label": "TRUE"}
{"Smi": "O=C(Cc1ccc(-c2ccc(OCCN3CCOCC3)cc2)cn1)NCc1ccccc1", "Answer label": "FALSE"}
{"Smi": "CCCCCCCCCCCCCCCCCCOP(=O)([O-])OC1CC[N+](C)(C)CC1", "Answer label": "FALSE"}

Attention now shifts to the item below.
Please indicate how the test categorized O=C(Nc1nc2cccc(-c3ccc(CN4CCS(=O)(=O)CC4)cc3)n2n1)C1CC1 .
FALSE

* * *

- Target: Mitogen-activated protein kinase kinase kinase 1 (Homo sapiens); also: in the data inactive means no Kd found up to 30 µM
Calls of active or inactive are those of the source.
A correct response names exactly one class from 1 for active, -1 for inactive

Examples with answers:
{"Smi": "CNC(=O)c1cc(Oc2ccc(NC(=O)Nc3cc(C(C)(C)C)nn3-c3ccc4ncccc4c3)c(F)c2)ccn1", "Answer label": -1}
{"Smi": "CNC(=O)c1cccc2cc(Oc3ccnc4cc(OCC5(N)CC5)c(OC)cc34)ccc12", "Answer label": -1}
{"Smi": "CN1C/C=C/CCOc2cccc(c2)-c2ccnc(n2)Nc2cccc(c2)C1", "Answer label": -1}
{"Smi": "Cn1cc(-c2cnc3ccc4ccc(CS(=O)(=O)NCc5ccccn5)cc4c(=O)c3c2)cn1", "Answer label": -1}
{"Smi": "CCn1cc(-c2ccnc3[nH]c(-c4cccc(CN(C)C)c4)cc23)c(-c2ccc(NC(=O)N(C)C)cc2)n1", "Answer label": -1}
{"Smi": "COc1cc2ncnc(Oc3cccc(NC(=O)Nc4cc(C(C)(C)C(F)(F)F)on4)c3)c2cc1OC", "Answer label": -1}

Please indicate how the test categorized C#Cc1cccc(Nc2ncnc3cc(OC)c(OCCCCCCC(=O)NO)cc23)c1 .
1

Another molecule: C[C@@H](Oc1cc(C(=O)Nc2ccc(C(=O)N3CCN(C)CC3)cc2)nnc1N)c1c(Cl)ccc(F)c1Cl
1

* * *

- Target: UniProt O60313
- Sequence (O60313 whole entry): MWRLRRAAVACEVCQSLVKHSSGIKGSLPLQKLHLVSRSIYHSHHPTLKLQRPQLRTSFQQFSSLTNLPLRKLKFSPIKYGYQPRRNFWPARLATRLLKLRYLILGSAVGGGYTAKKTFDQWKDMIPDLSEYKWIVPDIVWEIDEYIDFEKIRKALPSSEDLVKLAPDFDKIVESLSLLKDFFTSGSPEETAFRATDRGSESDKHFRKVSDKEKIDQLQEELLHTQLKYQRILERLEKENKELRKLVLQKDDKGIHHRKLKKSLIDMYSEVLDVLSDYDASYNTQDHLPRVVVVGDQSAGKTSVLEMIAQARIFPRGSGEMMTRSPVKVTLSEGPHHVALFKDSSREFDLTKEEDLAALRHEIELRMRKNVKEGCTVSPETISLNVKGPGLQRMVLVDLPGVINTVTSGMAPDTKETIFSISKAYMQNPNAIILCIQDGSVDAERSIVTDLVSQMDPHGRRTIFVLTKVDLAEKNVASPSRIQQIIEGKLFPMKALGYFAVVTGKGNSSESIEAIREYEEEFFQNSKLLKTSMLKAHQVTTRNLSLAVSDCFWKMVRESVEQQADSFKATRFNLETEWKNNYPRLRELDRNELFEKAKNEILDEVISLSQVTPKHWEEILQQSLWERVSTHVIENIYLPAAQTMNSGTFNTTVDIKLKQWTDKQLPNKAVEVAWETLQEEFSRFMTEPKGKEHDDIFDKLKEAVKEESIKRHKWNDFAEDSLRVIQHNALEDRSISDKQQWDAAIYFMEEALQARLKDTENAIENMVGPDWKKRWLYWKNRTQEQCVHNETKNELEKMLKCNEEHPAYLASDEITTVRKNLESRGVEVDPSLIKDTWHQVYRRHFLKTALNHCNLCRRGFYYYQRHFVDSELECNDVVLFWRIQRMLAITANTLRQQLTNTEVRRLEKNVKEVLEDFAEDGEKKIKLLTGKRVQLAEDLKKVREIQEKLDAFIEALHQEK
The source made the active and inactive calls.
Consider the following compounds and their measured Kd readings.

Given the compound COc1cc2ncnc(Oc3cccc(NC(=O)Nc4cc(C(C)(C)C(F)(F)F)on4)c3)c2cc1OC [CEP-32496] , what is its reported Kd?
> 30 µM (inactive)

* * *

- Target: UniProt P11274
- Sequence (P11274 whole entry): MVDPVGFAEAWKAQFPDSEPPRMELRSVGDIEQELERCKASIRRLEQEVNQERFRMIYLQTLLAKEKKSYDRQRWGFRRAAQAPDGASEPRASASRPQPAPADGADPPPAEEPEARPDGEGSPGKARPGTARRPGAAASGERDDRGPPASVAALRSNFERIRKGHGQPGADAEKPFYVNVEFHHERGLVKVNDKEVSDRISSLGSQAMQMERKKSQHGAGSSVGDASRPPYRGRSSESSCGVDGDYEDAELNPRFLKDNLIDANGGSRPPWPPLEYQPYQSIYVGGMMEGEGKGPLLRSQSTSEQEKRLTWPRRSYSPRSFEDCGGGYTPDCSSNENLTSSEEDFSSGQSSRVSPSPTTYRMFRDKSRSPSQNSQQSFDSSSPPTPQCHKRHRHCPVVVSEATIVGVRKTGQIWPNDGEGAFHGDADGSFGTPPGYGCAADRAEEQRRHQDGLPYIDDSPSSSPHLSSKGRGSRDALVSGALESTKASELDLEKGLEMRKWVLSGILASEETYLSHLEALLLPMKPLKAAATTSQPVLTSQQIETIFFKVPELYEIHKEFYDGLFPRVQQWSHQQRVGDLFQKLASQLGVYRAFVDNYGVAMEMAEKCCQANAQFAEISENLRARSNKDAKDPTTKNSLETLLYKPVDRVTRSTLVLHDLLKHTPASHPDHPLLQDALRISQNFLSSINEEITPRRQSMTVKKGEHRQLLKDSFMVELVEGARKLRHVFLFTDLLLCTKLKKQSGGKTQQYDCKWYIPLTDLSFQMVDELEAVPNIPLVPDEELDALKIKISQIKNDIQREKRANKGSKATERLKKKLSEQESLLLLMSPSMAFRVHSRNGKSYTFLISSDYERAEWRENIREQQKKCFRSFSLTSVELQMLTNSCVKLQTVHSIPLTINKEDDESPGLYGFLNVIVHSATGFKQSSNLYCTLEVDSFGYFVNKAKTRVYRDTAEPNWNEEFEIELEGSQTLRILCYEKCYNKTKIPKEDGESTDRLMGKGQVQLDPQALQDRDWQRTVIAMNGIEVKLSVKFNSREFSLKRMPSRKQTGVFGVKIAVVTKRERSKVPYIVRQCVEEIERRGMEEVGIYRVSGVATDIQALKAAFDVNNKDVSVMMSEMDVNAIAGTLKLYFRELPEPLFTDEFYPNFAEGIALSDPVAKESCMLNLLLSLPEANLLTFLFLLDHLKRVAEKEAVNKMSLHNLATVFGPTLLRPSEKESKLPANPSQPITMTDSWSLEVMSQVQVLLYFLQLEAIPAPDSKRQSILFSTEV
Active and inactive are the calls of the source.
A correct response names exactly one class from 1 for active, 0 for inactive

Examples with answers:
{"Compound": "O=C(Nc1cc(C(F)(F)F)cc(C(F)(F)F)c1)c1cc(Cl)ccc1O [IMD-0354]", "Answer label": 0}
{"Compound": "FC(F)(F)c1ccc(/C=C/c2nc(COc3ccc(CCCCn4ccnn4)cc3)co2)cc1 [MUBRITINIB]", "Answer label": 0}
{"Compound": "C[C@@H](Oc1cc(C(=O)Nc2ccc(C(=O)N3CCN(C)CC3)cc2)nnc1N)c1c(Cl)ccc(F)c1Cl", "Answer label": 0}
{"Compound": "O=C(Nc1c[nH]nc1-c1nc2cc(CN3CCOCC3)ccc2[nH]1)NC1CC1 [AT-9283]", "Answer label": 1}

Please indicate how the test categorized CNC(=O)c1ccccc1Sc1ccc2c(/C=C/c3ccccn3)n[nH]c2c1 [AXITINIB] .
1

* * *

Consider the following compounds and their measured Kd readings.
- Target: Mitogen-activated protein kinase 1 (Homo sapiens, UniProt P28482); also: in the data inactive means no Kd found up to 30 µM
- Sequence (P28482 whole entry): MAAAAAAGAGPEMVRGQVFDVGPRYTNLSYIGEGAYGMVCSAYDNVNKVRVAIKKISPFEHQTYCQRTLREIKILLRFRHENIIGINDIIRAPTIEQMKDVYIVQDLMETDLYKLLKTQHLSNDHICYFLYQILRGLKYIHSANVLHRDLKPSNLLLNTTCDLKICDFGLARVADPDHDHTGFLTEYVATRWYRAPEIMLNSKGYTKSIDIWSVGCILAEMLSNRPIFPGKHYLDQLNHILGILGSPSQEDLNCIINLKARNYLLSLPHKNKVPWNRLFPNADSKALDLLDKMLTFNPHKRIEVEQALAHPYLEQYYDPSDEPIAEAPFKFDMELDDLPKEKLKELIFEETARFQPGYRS
Active and inactive are the calls of the source.

# example entries with known answers
{"Compound": "COc1ccc(S(=O)(=O)N(C(C)=O)c2ccccc2/C=C/c2cc[n+]([O-])cc2)cc1 [HMN-214]", "Target": "Mitogen-activated protein kinase 1 (Homo sapiens, UniProt P28482)", "Kd": "> 30 µM (inactive)"}
{"Compound": "Cn1cc(-c2cnc3ccc4ccc(CS(=O)(=O)NCc5ccccn5)cc4c(=O)c3c2)cn1 [MK-8033]", "Target": "Mitogen-activated protein kinase 1 (Homo sapiens, UniProt P28482)", "Kd": "> 30 µM (inactive)"}
{"Compound": "Cn1ncc(Cl)c1-c1cc(C(=O)N[C@H](CN)Cc2ccc(F)c(F)c2)oc1Cl [UPROSERTIB]", "Target": "Mitogen-activated protein kinase 1 (Homo sapiens, UniProt P28482)", "Kd": "> 30 µM (inactive)"}

Now for another entry.
Given the compound Cc1cccc(-c2nn3c(c2-c2ccnc4ccc(C(N)=O)cc24)CCC3)n1 [GALUNISERTIB] , what is its reported Kd?
> 30 µM (inactive)

Provenance of the data: ChEMBL document CHEMBL3991601
